assay: qHTS assay for identifying genotoxic compounds that show differential cytotoxicity against isogenic chicken DT40 cell lines with known DNA damage response pathways - wild type cell line (AID 743012); conditions: DT40 wild type chicken cells viability, CellTiter-Glo, 40 h; series mostly up to 68.4 µM; note: nearly all actives have a fitted effect of over 60% in size; note: potency is the fitted concentration of half-maximal effect
Records with an inconclusive call do not appear. Calls of active or inactive are those of the source. Calls come from the whole dose curve; as a rule, active = well fitted cell-killing curve with a large enough effect in the repeat runs; inconclusive = weak or mixed curves, or effect the other way; inactive = no such curve, though single readings can be large or run the other way. Positions of bridges follow the written chain, without caps; N, C: chain ends. Non-standard residues stand in square brackets, D forms with d. Residues, ends and D or L forms follow the SMILES beside them. ξ: configuration not given here. *: point of attachment. d(aThr) = C[C@@H](O)[C@@H](N)C(=O)O; ξThr(3R) = C[C@@H](O)C(N)C(=O)O; X3 = CC[C@@H](C)CCCCC(=O)*; dDab = NCC[C@@H](N)C(=O)O
Value kind: Potency

In the examples that follow, each entry is paired with its recorded Potency.
compound=CC[C@@]1(O)C(=O)OCc2c1cc1n(c2=O)Cc2cc3c([N+](=O)[O-])cccc3nc2-1 recorded_value="0.119 µM (active)"
compound=O=[N+]([O-])O[C@@H]1CO[C@H]2[C@@H]1OC[C@@H]2O recorded_value=inactive
compound=Cc1ccc(C2(O)CCN(CCCC(=O)c3ccc(F)cc3)CC2)cc1 recorded_value="11.9 µM (active)"
compound=COc1cc2[nH]c(C)c(CCN3CCN(c4ccccc4)CC3)c2cc1OC recorded_value="18.8 µM (active)"
compound="CCC(C)[C@@H](N)C(=O)O (stereo not given in full)" recorded_value=inactive

Give Potency for all compounds that follow.
1. O=C(CCCN1CCC(n2c(=S)[nH]c3ccccc32)CC1)c1ccc(F)cc1
2. NC(=O)OCC(O)COc1ccc(Cl)cc1 (stereo not given)
3. O=P(O)(O)OC[C@H](O)CO
4. CCCC(CCC)C(N)=O
5. CC1CC(OC(=O)C(O)c2ccccc2)CC(C)(C)C1 (stereo not given)

Ans.
11.9 µM (active)
inactive
inactive
inactive
11.9 µM (active)

Give Potency for all compounds that follow.
1. O=C1C(=O)c2ncccc2-c2cccnc21
2. CN1CCN(CCC=C2c3ccccc3Sc3ccc(S(=O)(=O)N(C)C)cc32)CC1
3. CC(CN(C)C)CN1c2ccccc2S(=O)(=O)c2ccccc21 (stereo not given)
4. CC[C@@H](C)CCCCC(=O)N[C@H](CCN)C(=O)N[C@@H](C(=O)N[C@H](CCN)C(=O)N[C@@H]1CCNC(=O)C([C@@H](C)O)NC(=O)[C@@H](CCN)NC(=O)[C@@H](CCN)NC(=O)[C@@H](CC(C)C)NC(=O)[C@@H](Cc2ccccc2)NC(=O)[C@@H](CCN)NC1=O)[C@@H](C)O (stereo partly drawn) (X3-[dDab][d(aThr)][dDab][dDab][dDab][dF][dL][dDab][dDab][ξThr(3R)]; lactam 4-C)

Ans.
1: 5.96 µM (active); 2: 10.6 µM (active); 3: inactive; 4: inactive

Give Potency for all compounds that follow.
1. CCC(=O)OCC(=O)[C@@]1(OC(=O)CC)[C@@H](C)C[C@H]2[C@@H]3CCC4=CC(=O)C=C[C@]4(C)[C@@]3(F)[C@@H](O)C[C@@]21C
2. CCC(=O)c1ccc2c(c1)N(CCCN1CCN(CCO)CC1)c1ccccc1S2
3. Cc1cccc(Nc2ncccc2C(=O)O)c1C
4. CCOC(=O)O[C@]1(C(=O)COC(=O)CC)CC[C@H]2[C@@H]3CCC4=CC(=O)C=C[C@]4(C)[C@H]3[C@@H](O)C[C@@]21C

Ans.
1. 13.3 µM (active)
2. 2.66 µM (active)
3. inactive
4. inactive

Give Potency for all compounds that follow.
1. C=CC1=C(C)C2=CC3=NC(=C(CC(=O)[O-])C4=NC(=C(C)C4=C([O-])[O-])C=c4[n-]c(c(C)c4CC)=CC1=N2)C(CCC(=O)[O-])C3C.[Cu+2].[Na+].[Na+].[Na+] (stereo not given)
2. O=P(O)(O)OC[C@H]1O[C@](O)(COP(=O)(O)O)[C@@H](O)[C@@H]1O

Ans.
1. 29.8 µM (active)
2. inactive
